B1: library; numbered along this chain (parent)
chain: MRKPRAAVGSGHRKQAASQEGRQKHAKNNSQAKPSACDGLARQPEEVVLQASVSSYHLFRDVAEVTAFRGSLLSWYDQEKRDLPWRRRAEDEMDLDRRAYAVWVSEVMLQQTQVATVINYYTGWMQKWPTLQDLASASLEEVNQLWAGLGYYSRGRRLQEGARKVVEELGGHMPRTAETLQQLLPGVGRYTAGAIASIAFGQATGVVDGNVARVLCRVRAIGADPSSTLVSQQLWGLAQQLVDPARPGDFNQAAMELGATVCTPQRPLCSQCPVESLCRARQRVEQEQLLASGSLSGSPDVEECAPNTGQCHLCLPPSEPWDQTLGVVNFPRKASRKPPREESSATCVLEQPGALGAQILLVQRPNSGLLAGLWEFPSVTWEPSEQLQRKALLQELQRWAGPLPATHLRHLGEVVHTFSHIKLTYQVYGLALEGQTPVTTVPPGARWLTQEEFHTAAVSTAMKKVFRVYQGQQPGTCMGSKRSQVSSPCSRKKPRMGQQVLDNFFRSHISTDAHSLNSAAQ

variants of: B1; experiment: 8OG:A repair function score (normalized; synonymous = 0, nonsense = -1) (normalized log-likelihood score); higher = more repair activity (WT-like); conditions: with 8OG:A DNA repair reporter (GFP) in HEK-293 MUTYH KO cells;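 further: cells sorted at 72 h after reporter transfection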
Assign Yes whenever 8OG:A repair function score does not fall below -0.08; assign No whenever it does.

Does the reported 8OG:A repair function score for "T308Q" fall at or above the -0.08 mark?
Yes

Is the recorded value of 8OG:A repair function score equal to or greater than -0.08 for this variant? "N503R"
Yes

Has "S487K" a recorded 8OG:A repair function score greater than or equal to -0.08?
Yes

Entry "R446W" : is its 8OG:A repair function score no less than -0.08?
No

Hi, just wondering whether "A41W" shows 8OG:A repair function score of -0.08 or higher.
No

Check this variant for 8OG:A repair function score at or above -0.08: "G161A"
Yes

hey, is 8OG:A repair function score for this one >= -0.08? "Q470T"
Yes

Reported 8OG:A repair function score reaches at least -0.08 for "V261M" ?
No

Test whether the variant "K481Y" records 8OG:A repair function score of -0.08 or higher.
Yes

Item "K463R" with 8OG:A repair function score of -0.08 or above?
Yes

Textbook exercise: given the entry "S71D" , state whether its 8OG:A repair function score is greater than or equal to -0.08.
No
